Cited source for all entries: ChEMBL document CHEMBL3997765

target: Mitogen-activated protein kinase 14 (Homo sapiens, UniProt Q16539); experiment: Inhibition of full length recombinant human GST-tagged p38alpha expressed in Escherichia coli by Z'-Lyte assay
Sequence (Q16539 whole entry): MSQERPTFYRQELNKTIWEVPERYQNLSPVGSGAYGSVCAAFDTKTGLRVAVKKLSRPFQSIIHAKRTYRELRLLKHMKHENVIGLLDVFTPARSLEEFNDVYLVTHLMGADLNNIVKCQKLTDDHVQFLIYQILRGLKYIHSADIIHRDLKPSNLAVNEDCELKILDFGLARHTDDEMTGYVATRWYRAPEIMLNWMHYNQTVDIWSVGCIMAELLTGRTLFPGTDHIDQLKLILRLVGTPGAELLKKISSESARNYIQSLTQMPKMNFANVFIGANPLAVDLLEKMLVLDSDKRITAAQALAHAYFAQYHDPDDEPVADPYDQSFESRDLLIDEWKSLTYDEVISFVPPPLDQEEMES

Compound: CCCC1=Nc2c(ncnc2[S+]([O-])c2ccccc2)Sc2ccccc21 (centres undefined)
System under test: Mitogen-activated protein kinase 14 (Homo sapiens, UniProt Q16539)
IC50 [nM]: 969

Compound: c1ccc(Sc2ncnc3c2N=C(c2cccnc2)c2ccccc2S3)cc1
System under test: Mitogen-activated protein kinase 14 (Homo sapiens, UniProt Q16539)
IC50 [nM]: 1250

Compound: [O-][S+](c1ccc(Cl)cc1)c1ncnc2c1N=C(c1ccccc1)c1cc(Cl)ccc1S2 (centres undefined)
System under test: Mitogen-activated protein kinase 14 (Homo sapiens, UniProt Q16539)
IC50 [nM]: 855

Compound: Cc1ccc(C2=Nc3c(ncnc3S(=O)(=O)c3ccc(C)cc3)[S+]([O-])c3ccc(C)cc32)cc1 (centres undefined)
System under test: Mitogen-activated protein kinase 14 (Homo sapiens, UniProt Q16539)
IC50 [nM]: 42.7
